Each item that follows carries a reported melting point.

CN1COc2c(N3CCC(N4CCCC4)CC3)c(F)cc3c(=O)c(C(=O)O)cn1c23 (hydrate or solvate)	267 to 269 °C
CN1COc2c(N3CCC(NC(=O)C(F)(F)F)C3)c(F)cc3c(=O)c(C(=O)O)cn1c23 (stereo not shown) (hydrate or solvate)	281 to 283 °C
CN1COc2c(N3CC[C@H](Nc4ncc[nH]4)C3)c(F)cc3c(=O)c(C(=O)O)cn1c23 (hydrate or solvate)	245 °C (dec.)
CN1COc2c(N3CC(N)C(C)(C)C3)c(F)cc3c(=O)c(C(=O)O)cn1c23 (racemic) (hydrate or solvate)	237 °C (dec.)

Reported melting point of CN1COc2c(N3CC[C@H](n4ccnn4)C3)c(F)cc3c(=O)c(C(=O)O)cn1c23 (hydrate or solvate) : 235 °C (dec.)

Reported melting point of CN1COc2c(N3CC[C@@H](Nc4nccs4)C3)c(F)cc3c(=O)c(C(=O)O)cn1c23 (hydrate or solvate) : 245 to 250 °C

Reported melting point of CN1n2cc(C(=O)O)c(=O)c3cc(F)c(N4CC[C@H](NC(=O)C(F)(F)F)C4)c(c32)OC1(C)C (hydrate or solvate) [51] : 217 to 219 °C
